B1: C10orf62 (parent)
chain: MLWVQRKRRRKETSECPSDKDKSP

variants of: B1; assay: protein stability index of a GFP-peptide fusion (GPS, HEK-293T) (PSI 1-6); higher = more stable; conditions: c terminus: a fixed tail appended;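 further: lentivirally expressed fusions sorted by FACS into six bins by GFP to DsRed ratio, PSI derived from sequencing read proportions per bin multiplied by bin number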
RECORDED_METRIC: protein stability index

// lookup protein stability index for Q5K
4.1

// lookup protein stability index for L2V
2.6

// lookup protein stability index for T13L
3.4

// lookup protein stability index for K7I
1.95

// lookup protein stability index for R9D
3.62

// lookup protein stability index for E15P
2.99

// lookup protein stability index for M1T
3.65

// lookup protein stability index for K11H
2.72

// lookup protein stability index for K20I
3.7

// lookup protein stability index for K20F
2.12

// lookup protein stability index for S14V
3.14

// lookup protein stability index for K11E
3.06

// lookup protein stability index for T13S
2.25

// lookup protein stability index for R8A
3.9

// lookup protein stability index for W3F
3.25

// lookup protein stability index for P17I
2.96

// lookup protein stability index for V4A
4.6

// lookup protein stability index for M1P
2.83

// lookup protein stability index for P17M
3.44

// lookup protein stability index for R10P
4.27

// lookup protein stability index for C16S
4.01

// lookup protein stability index for M1N
4.55

// lookup protein stability index for K7M
3.06

// lookup protein stability index for R6W
3.21

// lookup protein stability index for S18M
2.94

// lookup protein stability index for S18K
2.77

// lookup protein stability index for E12W
2.5

// lookup protein stability index for V4Y
2.71

// lookup protein stability index for T13H
3.39

// lookup protein stability index for R6E
4.01

// lookup protein stability index for L2H
3.52

// lookup protein stability index for R6C
2.27

// lookup protein stability index for K20A
2.74

// lookup protein stability index for T13Q
2.58

// lookup protein stability index for D21E
3.44

// lookup protein stability index for K20V
3.27

// lookup protein stability index for Q5S
3.85

// lookup protein stability index for C16W
2.16

// lookup protein stability index for W3D
4.99

// lookup protein stability index for K22Y
3.12

// lookup protein stability index for C16M
3.84

// lookup protein stability index for R6N
3.87

// lookup protein stability index for R9H
3.32

// lookup protein stability index for S18R
3.21

// lookup protein stability index for S23L
3.38

// lookup protein stability index for E15N
3.52

// lookup protein stability index for W3Y
2.77

// lookup protein stability index for C16G
2.43

// lookup protein stability index for Q5N
3.44

// lookup protein stability index for P17Y
2.27

// lookup protein stability index for P17Q
3.36

// lookup protein stability index for D21N
3.44

// lookup protein stability index for D21L
2.29

// lookup protein stability index for E12D
2.39

// lookup protein stability index for R9A
3.71

// lookup protein stability index for D19I
2.84

// lookup protein stability index for V4H
3.86

// lookup protein stability index for E15I
1.92

// lookup protein stability index for D19E
2.46

// lookup protein stability index for P24Q
3.54

// lookup protein stability index for K20R
2.81

// lookup protein stability index for S23T
3.05

// lookup protein stability index for L2M
2.89

// lookup protein stability index for S23G
3.25

// lookup protein stability index for M1H
3.73

// lookup protein stability index for K7R
3.29

// lookup protein stability index for V4C
3.91

// lookup protein stability index for P24C
3.2

// lookup protein stability index for K22F
2.66

// lookup protein stability index for V4M
2.52

// lookup protein stability index for P17C
2.74

// lookup protein stability index for K11R
3.39

// lookup protein stability index for E15V
3.29

// lookup protein stability index for R8F
3.05

// lookup protein stability index for K7Q
3.74

// lookup protein stability index for P17S
2.92

// lookup protein stability index for R10K
3.41

// lookup protein stability index for S18H
2.85

// lookup protein stability index for T13W
2.75

// lookup protein stability index for S23K
2.27

// lookup protein stability index for E12I
2.39

// lookup protein stability index for R9I
3.4

// lookup protein stability index for V4T
2.73

// lookup protein stability index for P24I
2.35

// lookup protein stability index for K11M
2.71

// lookup protein stability index for E12G
2.49

// lookup protein stability index for T13V
4.26

// lookup protein stability index for K20G
3.29

// lookup protein stability index for R10Q
3.12

// lookup protein stability index for D21Y
2.32

// lookup protein stability index for K20S
2.73
